Record form. Attribute: self-cleavage. Fill in for each entry.
B1: Hairpin Ribozyme (parent)
chain: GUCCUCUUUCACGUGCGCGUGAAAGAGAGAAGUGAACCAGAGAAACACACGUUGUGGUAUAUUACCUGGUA

# Variants of: B1
# ASSAY_DETAILS: self-cleavage, relative activity (ratio to wild type); higher = more cleavage; co-transcriptional
I'd appreciate a reply containing only the number, no unit.

// query Look up self-cleavage: GUCCUCUUUCACGUGCGCGUGAACGACAGAAGUGAACCAGAGAAACACACGUUGUGGUAUAUUACCUGGUA [A24C G27C]
// result 0.228

// query Could you tell me which self-cleavage is on file for GUCCUCAUUCACGUGCGCGUGAAAGAGAGAAGUGAACCAGAGAAACACACAUUGUGGUAUAUUACCUGGUA [U7A G51A] ?
// result 0.977

// query What self-cleavage value was documented for this variant, GUCCUCUUUCACGUGCGCGUGAAAGAGAGAAGUGAACCACAGAAACAUACGUUGUGGUAUAUUACCUGGUA [G40C C48U] ?
// result 0.135

// query For the variant GUCCUUUUUCACGUGCGCGUGAAAGCGAGAAGUGAACCAGAGAAACACACGUUGUGGUAUAUUACCUGGUA [C6U A26C] , what self-cleavage is on record?
// result 0.29

// query # query: self-cleavage of entry GCCCUCUUUCACGUGCGCGUGAAAGAGAGAAGUGAACCAGCGAAACACACGUUGUGGUAUAUUACCUGGUA [U2C A41C]
// result 0.0362

// query Please look up its self-cleavage: GUCCUCUUUCACGUGCGCGUGAAAGAGAGAAGUGAACCAGAGAAACACACGUUGUGGCAUAUUACCUGGUG [U58C A71G]
// result 1.31

// query Fill in the blank: the reported self-cleavage of GUCCACUUUCACGUACGCGUGAAAGAGAGAAGUGAACCAGAGAAACACACGUUGUGGUAUAUUACCUGGUA [U5A G15A] is ____.
// result 0.388

// query self-cleavage value for entry GUCCUCUUUCACGUGCGCGUGAAAGAGAUAAGUGAACCAGAGAAACACACGUUGUGGUAUACUACCUGGUA [G29U U62C]
// result 0.0779

// query Any idea what its self-cleavage is? The variant is GUCCUCUUUCACGUGAGCGUGAAAGAGAGAAGUAAACCAGAGAAACACACGUUGUGGUAUAUUACCUGGUA [C16A G34A]
// result 1.35

// query # lookup: self-cleavage of GUCAUCUUUCACGUGCGCGUGAAAGAGAGAAGUGAACCAGAGAAACACACGUUGUGGUAUAUUACCUGGAA [C4A U70A]
// result 0.25

// query Which value of self-cleavage has been reported for GUCCUCUUUCACGUGCGCGUGAAAGCGAGAAGUGAACGAGAGAAACACACGUUGUGGUAUAUUACCUGGUA [A26C C38G] in the records?
// result 0.182

Origin of the recorded values: the RNAGym collection of RNA variant scans (doi:10.7554/elife.80360)
